The reported measurements were obtained from patent US7781580B2.

Recorded measurements of melting point, one per entry
Counter-ions that a name gives are not always drawn.

These solved cases illustrate the format of a correct answer.
Query (compound): C=CCOc1cc(/C=C\c2ccc(OC)c(N)c2)cc(OC)c1.Cl [10e] ; field requested: melting point
122 to 125 °C

Query (compound): COc1cc(/C=C\c2ccc(OC)c(N)c2)cc(OCCO)c1 (as salt: hydrochloride) [10a] ; field requested: melting point
157 to 159 °C

Query (compound): `C=CCOc1cc(/C=C/c2ccc(OC)c(N)c2)cc(OC)c1.Cl` ; field requested: melting point
137 to 140 °C

Query (compound): COc1ccc(/C=C\c2ccc3[nH]ccc3c2)cc1N.O=C(O)C(=O)O [14a] ; field requested: melting point
112 to 115 °C

Query (compound): `COc1cc(/C=C\c2ccc(OC)c(N)c2)cc(OC(C)C)c1.Cl` ; field requested: melting point
120 to 122 °C

Query (compound): `CCOc1cc(/C=C/c2ccc(OC)c(N)c2)cc(OC)c1.Cl` ; field requested: melting point
147 to 149 °C

Query (compound): `COc1cc(/C=C/c2ccc(OC)c(N)c2)cc(OC(C)C)c1.Cl` ; field requested: melting point
134 to 136 °C

--- query ---
Query (compound): CCOc1cc(/C=C\c2ccc(OC)c(N)c2)cc(OC)c1.Cl [10b] ; field requested: melting point
127 to 131 °C
